procedure.summary: Primary qHTS for small molecule stabilizers of the endoplasmic reticulum resident proteome: Secreted ER Calcium Modulated Protein (SERCaMP) assay (AID 1508630)
condition.set: SH-SY5Y GLuc-SERCaMP (Gaussia luciferase released on ER calcium loss) secretion, thapsigargin, luminescence; series mostly up to 38.4 µM
Records with an inconclusive call do not appear. Activity calls are given as the source filed them. The call rests on the fitted dose curve; in most records, active means well fitted inhibition curve with a large enough effect; inconclusive means small, poorly fitted or top-dose-only effect; inactive means no such curve, though single readings can be large or run the other way.
experimental.endpoint: outcome

[[record]]
smiles_notation = "COC(=O)N1CCC2(CCCN(Cc3nccs3)C2)CC1"
endpoint_value = "inactive"

[[record]]
smiles_notation = "COCC(=O)N1CCC2(CC1)CCN(C(=O)NC(C)C)CC2"
endpoint_value = "inactive"

[[record]]
smiles_notation = "COc1ccc(CNc2nc(-c3ccc(C(=O)N(C)C)cc3)nc3ccccc23)c(OC)c1"
endpoint_value = "inactive"

[[record]]
smiles_notation = "COc1ccc(CNc2ncncc2-c2ccc(N(C)C)cc2)c(OC)c1"
endpoint_value = "inactive"

[[record]]
smiles_notation = "COc1ccc(-c2nc3cnc(N(C)C)nc3n(Cc3ccc(F)cc3)c2=O)cc1"
endpoint_value = "inactive"


INPUT: Which outcome value is on record for O=C(c1cccc(F)c1)N1CCC2(CCCN(c3ccc(-c4ccccc4)cc3)C2)CC1 ?
OUTPUT: inactive

INPUT: I am curious: what outcome value has been reported for c1ccc(Nc2ncncc2-c2ccoc2)cc1 ?
OUTPUT: inactive

INPUT: Endpoint output: outcome of O=c1c(-c2ccc(Cl)cc2)nc2cncnc2n1Cc1ccccc1Cl . Value?
OUTPUT: inactive

---

procedure.summary: AP1 Signaling Pathway (AID 357);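 further: ME-180 reporter cells stimulated with EGF at its EC50 level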
condition.set: ME-180 (cervical carcinoma) AP-1-bla reporter, EGF-induced, beta-lactamase ratio, 5 h; at 7.69 µM (top of the series) unless noted
Records with an inconclusive call do not appear. The source made the active and inactive calls. Calls come from the whole dose curve; as a rule, active = well fitted curve in either direction with a large enough effect (not every such curve was filed as active); inconclusive = small, poorly fitted or top-dose-only effect, or another doubt; inactive = flat fitted curve, though single readings scatter.
Return exactly one item of label 1 (active), label 0 (inactive)

INPUT: Please state the recorded outcome for this molecule: c1cncc(CNc2ncncc2-c2ccoc2)c1
OUTPUT: label 0

INPUT: Hi, do you know how COc1ccccc1CN1CCCC2(CCN(C(=O)c3csnn3)CC2)C1 came out in this test?
OUTPUT: label 0

INPUT: Hi, sorry to bother you, what did the test record for Cc1noc(C)c1C(=O)N1CCC2(CCN(Cc3ccccc3)CC2)CC1 ?
OUTPUT: label 0

INPUT: Outcome logged for COc1ccc(-n2c(=O)c(-c3ccc(F)cc3)nc3cncnc32)cc1 in this assay:
OUTPUT: label 0

INPUT: What outcome does the record of this test show for COc1ccccc1-c1nc(N(C)C)c2ccccc2n1 ?
OUTPUT: label 0

INPUT: Could you check what this test reported for FC(F)(F)c1ccccc1-c1cncnc1NCc1ccccc1 ?
OUTPUT: label 0

INPUT: Give the logged outcome of this assay for the following molecule: COc1ccc(Oc2ncc3nc(-c4cc(F)cc(F)c4)c(=O)n(C[C@H]4CCCO4)c3n2)cc1
OUTPUT: label 0

INPUT: Query: recorded result category for CCNc1ncc2nc(-c3ccc(OC)cc3)c(=O)n(CCc3ccccc3)c2n1 in this test
OUTPUT: label 1

INPUT: Hi team, can someone confirm the assay call for c1ccc(CNc2ccnc(-c3ccc4c(c3)OCO4)n2)cc1 ?
OUTPUT: label 0

INPUT: Please indicate how the test categorized O=C(c1cnccn1)N1CCC2(CC1)CCN(c1ccccn1)CC2 .
OUTPUT: label 0

INPUT: Name the outcome recorded for COCCn1c(=O)c(CCc2ccccc2)nc2cnc(Oc3ccc(OC)cc3)nc21 in the assay.
OUTPUT: label 0

INPUT: Call for entry N#Cc1cccc(NC(=O)N2CC[C@@]3(CCCN(C(=O)c4ccco4)C3)C2)c1 :
OUTPUT: label 0

INPUT: Test call, this molecule: COCC(=O)N1CCC2(CC1)CN(Cc1ccccc1OC)C2
OUTPUT: label 0

INPUT: Assay outcome for CN(C)c1ccc(-c2cncnc2-n2ccnc2)cc1 : what was it?
OUTPUT: label 0

INPUT: Query: recorded result category for O=C(c1csnn1)N1CCC[C@@]2(CCN(c3ccncc3)C2)C1 in this test
OUTPUT: label 0

INPUT: Short answer needed: outcome of this test for c1cncc(-c2nccc(-n3ccnc3)n2)c1 ?
OUTPUT: label 0

INPUT: Please share the test call associated with CC(=O)N1CCC2(CC1)CN(C(=O)Nc1cccc(C#N)c1)C2 .
OUTPUT: label 0

INPUT: Per the records of this test, what outcome belongs to N#CCCn1c(=O)c(-c2ccc(Cl)cc2)nc2cnc(Oc3cccc(Cl)c3)nc21 ?
OUTPUT: label 0

INPUT: Outcome? N#CCCn1c(=O)cnc2cnc(Nc3ccccc3)nc21
OUTPUT: label 0

INPUT: Recorded call for COc1ccc(NC(=O)N2CC3(CCN(C(=O)c4csnn4)CC3)C2)cc1 ?
OUTPUT: label 0

INPUT: Hi, sorry to bother you, what did the test record for COc1ccccc1-c1cncnc1NCc1ccccc1 ?
OUTPUT: label 0

INPUT: Test call, this molecule: COc1c2ccoc2nc2c(OC)c(OC[C@H](O)C(C)(C)O)ccc12
OUTPUT: label 0

INPUT: Hi team, can someone confirm the assay call for CCNc1ncc2nc(-c3cn(C)c4ccccc34)c(=O)n(C[C@H]3CCCO3)c2n1 ?
OUTPUT: label 0

INPUT: # lookup: test call for COCCn1c(=O)c(-c2ccccc2)nc2cnc(N3CCN(C)CC3)nc21
OUTPUT: label 0

INPUT: Per the records of this test, what outcome belongs to CN(C)c1ccc(-c2nc(NCCc3cnc[nH]3)c3ccccc3n2)cc1 ?
OUTPUT: label 0

INPUT: Hello, I am checking results. What call was entered for CN(C)Cc1ccccc1-c1cc(NCc2cccs2)ncn1 ?
OUTPUT: label 0

INPUT: Returns: the outcome recorded for COc1ccccc1-c1nc(N(C)Cc2ccco2)c2ccccc2n1 in this assay.
OUTPUT: label 0

INPUT: Record lookup: outcome of this test for O=C(Nc1ccccc1)N1CC2(CCN(C(=O)c3cnccn3)CC2)C1 ?
OUTPUT: label 0

INPUT: What was the test verdict on O=C(c1cccc(F)c1)N1CCC2(CCCN(c3cccc(-c4ccccc4)c3)C2)CC1 ?
OUTPUT: label 0

INPUT: I'd appreciate the recorded outcome for CCNc1ncc2nc(-c3cccs3)c(=O)n(Cc3cccs3)c2n1 from this test.
OUTPUT: label 0

INPUT: State the result this test recorded for CC(=O)NCCNc1nc(-c2ccc(C(=O)N(C)C)cc2)nc2ccccc12 .
OUTPUT: label 0

INPUT: Look up the recorded call for COCCn1c(=O)cnc2cnc(N(C)C)nc21 in this test.
OUTPUT: label 0

INPUT: # lookup: test call for CN(C)c1ncc2ncc(=O)n(C)c2n1
OUTPUT: label 0

INPUT: State the result this test recorded for Cc1cnc(CNc2nc(-c3ccc4c(c3)OCO4)nc3ccccc23)cn1 .
OUTPUT: label 0

INPUT: Field: outcome | Entry: COc1cccc(-c2nc(N(C)Cc3ccco3)c3ccccc3n2)c1
OUTPUT: label 0

INPUT: Called result for COC(=O)N1CCC[C@@]2(CCN(Cc3cc(C(F)(F)F)cc(C(F)(F)F)c3)C2)C1
OUTPUT: label 0

INPUT: Give the logged outcome of this assay for the following molecule: O=C(c1ccncc1)N1CCC2(CCCN(c3ccccn3)C2)CC1
OUTPUT: label 0

INPUT: Hi, sorry to bother you, what did the test record for Cc1cnc(CNc2ncncc2-c2ccc3c(c2)OCO3)cn1 ?
OUTPUT: label 0

INPUT: GET /call?item= O=S(=O)(c1ccccc1)N1CCC2(CCN(Cc3ccccc3)CC2)CC1 returns the recorded outcome of this test.
OUTPUT: label 0

INPUT: Recorded test outcome, item COc1cccc(Cn2c(=O)c(-c3ccc(Cl)cc3)nc3cnc(N4CCN(C)CC4)nc32)c1
OUTPUT: label 0

INPUT: Could you check what this test reported for Cn1c(=O)c(CCc2ccccc2)nc2cncnc21 ?
OUTPUT: label 0

INPUT: I would be grateful if you could indicate the recorded call for O=c1c(-c2cccs2)nc2cnc(Oc3ccccc3)nc2n1-c1ccccc1 .
OUTPUT: label 0

INPUT: Dear all, I need the recorded test outcome for COc1ccc(NC(=O)N2CCCC3(CCN(C(=O)c4cccc(F)c4)CC3)C2)cc1 , thank you.
OUTPUT: label 0

INPUT: Name the outcome recorded for COc1ccc(Oc2ncc3nc(C)c(=O)n(CCC#N)c3n2)cc1 in the assay.
OUTPUT: label 0

INPUT: Assay result, entry Cc1noc(C)c1-c1nccc(N(C)C)n1 — outcome?
OUTPUT: label 0
